Tested on: PDL Fibroblasts
Assay: SRB cytotoxicity on normal periodontal ligament fibroblasts, selective cytotoxicity
Assay type: cell-based, Human
Settings: Homo sapiens, Fibroblast; normal fibroblasts, SRB, 72 h, mean ± SD, value in brackets
API: label(entry) gives Y if the entry's IC50 is strictly smaller than 60 µg/mL; on equality or larger values it gives N.

compound | cat
CCc1ccc(Nc2c(F)cc3c(=O)c(C(=O)O)cn(C4CC4)c3c2[N+](=O)[O-])cc1 | N
CCn1cc(C(=O)O)c(=O)c2cc(F)c(Nc3ccc(OC)cc3OC)c(N)c21 [12c] | Y
CCc1ccc(-n2nnc3c4c(cc(F)c32)c(=O)c(C(=O)O)cn4C2CC2)cc1 | N
CCn1cc(C(=O)O)c(=O)c2cc(F)c3c(nnn3-c3ccc(OC)cc3OC)c21 [13c] | N
COc1ccc(Nc2c(F)cc3c(=O)c(C(=O)O)cn(C4CC4)c3c2N)cc1 | Y
O=C(O)c1cn(C2CC2)c2c(cc(F)c3c2nnn3C2CCCCC2)c1=O | N
CCCCc1ccc(Nc2c(F)cc3c(=O)c(C(=O)O)cn(C4CC4)c3c2N)cc1 | Y
CCCCc1ccc(-n2nnc3c4c(cc(F)c32)c(=O)c(C(=O)O)cn4C2CC2)cc1 | Y
CCOC(=O)c1cn(C2CC2)c2c([N+](=O)[O-])c(Nc3ccc(F)cc3)c(F)cc2c1=O | N
COc1ccc(-n2nnc3c4c(cc(F)c32)c(=O)c(C(=O)O)cn4C2CC2)cc1 | N
CCCCCCc1ccc(-n2nnc3c4c(cc(F)c32)c(=O)c(C(=O)O)cn4C2CC2)cc1 | N
